Reported EC50S1P1/EC50S1P values follow for various compounds
# target.under.test: S1P1 human receptor (Homo sapiens (Human))
# assay: S1P1 [35S]-GTPgamaS binding assay (agonist activity)
# Assay type: biochemical
# condition.notes: potency at S1P1 relative to S1P
# Method: Selected Compounds of the Examples were evaluated at Millipore Corporation, USA, using S1P1 receptor; [^35S]-GTPgamaS binding assay. […] Selectivity was determined upon initial addition of compounds followed by a 30 minute incubation at 30° C. Following compound incubation, bounded [^35S]-GTPgamaS was determined by filtration and scintillation counting. Independently, selected compounds were evaluated for S1P1 and S1P3 agonistic activity. […]
Response field accepts a number only; no unit should be typed.

Solved entries:
COc1ccc(-c2nc(-c3ccc4c(c3)CCN4CC(N)(CO)CO)no2)cc1Cl: 278
CCOc1ccc(-c2nc(-c3cccc4c3CCN4CC(N)(CO)CO)no2)cc1OC: 2.56
CCOc1ccc(-c2nc(-c3cccc4c3ccn4CC(N)(CO)CO)no2)cc1Cl: 9.26
CCOc1ccc(-c2nc(-c3ccc(C4=CCN(CC(N)(CO)CO)CC4)cc3)no2)cc1OCC: 150
CCCc1ccc(-c2nc(-c3cccc4c3CCN4CC(N)(CO)CO)no2)cc1: 0.14
CCCCCCCCOc1ccc(CCC(N)(CO)CO)cc1C12CC3CC(CC(C3)C1)C2.Cl: 3188.66
NC(CO)(CO)CN1CCc2c(OCc3cc4c(Cl)cc(Cl)cc4o3)cccc21: 144.46

Which EC50S1P1/EC50S1P is listed for CCOc1ccc(-c2nc(-c3cccc4c3ccn4CC(N)(CO)CO)no2)cc1OCC ?
4.75

----------
# target.under.test: S1P1 human receptor (Homo sapiens (Human), UniProt P21453)
# Sequence (P21453 whole entry): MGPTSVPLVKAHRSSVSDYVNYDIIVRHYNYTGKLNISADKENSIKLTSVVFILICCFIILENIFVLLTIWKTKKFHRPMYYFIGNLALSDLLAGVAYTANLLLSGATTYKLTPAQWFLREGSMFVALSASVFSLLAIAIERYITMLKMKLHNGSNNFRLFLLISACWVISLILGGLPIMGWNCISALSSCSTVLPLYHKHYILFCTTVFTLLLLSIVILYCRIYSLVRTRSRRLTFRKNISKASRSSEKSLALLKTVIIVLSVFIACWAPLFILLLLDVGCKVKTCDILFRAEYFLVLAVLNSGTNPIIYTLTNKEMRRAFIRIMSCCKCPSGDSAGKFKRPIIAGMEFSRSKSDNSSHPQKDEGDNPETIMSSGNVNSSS
# assay: S1P1 [35S]-GTPgamaS binding assay (agonist activity)
# Assay type: biochemical
# condition.notes: GTPgamaS binding, agonist
Please assign rule not met whenever EC50 is at or above 100 nM, and rule met whenever it is below.

Answered examples (8):
CCCOc1ccc(-c2nc(-c3cccc4c3CCN4CC(N)(CO)CO)no2)cc1I: rule met
CC(C)(C)OC(=O)NC(CO)(CO)CN1CCc2c(OCc3cc4c(Cl)cc(Cl)cc4o3)cccc21: rule not met
CCCCCCCCc1ccc2c(c1)CCN(CC(N)(CO)CO)C2: rule not met
CCOc1ccc(-c2nc(-c3ccc4c(c3)CCN4CC(N)(CO)CO)no2)cc1OCC: rule not met
NC(CO)(CO)CN1CCc2cc(OCc3cc4c(Cl)cc(Cl)cc4o3)ccc21: rule not met
CCOc1ccc(-c2nc(-c3cccc4c3CCN4CC(N)(CO)CO)no2)cc1OCC: rule met
COc1ccc(-c2nc(-c3ccc4c(c3)CCN4CC(N)(CO)CO)no2)cc1Cl: rule not met
CCCOc1ccc(-c2nc(-c3ccc4c(c3)CCN4CC(N)(CO)CO)no2)cc1Br: rule met

Quick check: does CCOc1ccc(-c2nc(-c3cccc4c3CCN4CC(N)(CO)CO)no2)cc1OC have EC50 under 100 nM?
rule met

Same for Cl.NC(CO)(CO)CCc1ccc(CCc2ccc(C(=O)c3ccc(F)cc3)cc2)cc1 [Example 12, hydrochloride salt]
rule not met

Would you mind doing CCOc1ccc(-c2nc(-c3ccc4c(c3)CN(CC(N)(CO)CO)C4)no2)cc1OCC as well?
rule met

Repeat for the following molecule: NC(CO)(CO)CN1CCc2c(OCc3cc4c(Cl)cc(Cl)cc4o3)cccc21
rule not met

----------
Entries and their EC50
# target.under.test: UniProtKB Q99500
# Sequence (Q99500 whole entry): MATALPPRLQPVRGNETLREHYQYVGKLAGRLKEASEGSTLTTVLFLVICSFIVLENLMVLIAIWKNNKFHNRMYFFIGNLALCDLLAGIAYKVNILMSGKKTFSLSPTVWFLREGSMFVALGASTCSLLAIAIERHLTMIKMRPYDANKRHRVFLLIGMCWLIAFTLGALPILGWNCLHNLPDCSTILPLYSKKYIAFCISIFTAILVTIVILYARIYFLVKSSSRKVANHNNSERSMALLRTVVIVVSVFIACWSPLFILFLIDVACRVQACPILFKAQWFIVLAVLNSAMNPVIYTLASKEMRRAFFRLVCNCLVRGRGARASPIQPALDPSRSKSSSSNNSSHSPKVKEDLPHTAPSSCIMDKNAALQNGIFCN
# assay: S1P3 calcium mobilization in CHO K1 cells
# Type: cell-based
# condition.notes: NA = Not Active

Here's what some known entries look like.
CCOc1ccc(-c2nc(-c3ccc4c(c3)CN(CC(N)(CO)CO)C4)no2)cc1OCC [Example 65]: 0.39 µM
CCCOc1ccc(-c2nc(-c3cccc4c3CCN4CC(N)(CO)CO)no2)cc1OCCC [Example 43]: 3.1 µM
CCOc1ccc(-c2nc(-c3ccc4c(c3)CCN4CC(N)(CO)CO)no2)cc1OCC [Example 40]: > 15.6 µM
CCCc1ccc(-c2nc(-c3cccc4c3CCN4CC(N)(CO)CO)no2)cc1CCC [Example 47]: 0.965 µM

In the following, a different compound is considered.
Look up EC50: CCOc1ccc(-c2nc(-c3cccc4c3CCN4CC(N)(CO)CO)no2)cc1OCC [Example 34]
1.29 µM

----------
# target.under.test: S1P1 human receptor (Homo sapiens (Human), UniProt P21453)
# assay: S1P1 [35S]-GTPgamaS binding assay (agonist activity)
# Format: biochemical
# condition.notes: potency at S1P1 relative to S1P
measured.metric: EC50S1P1/EC50S1P
No unit in the answer, only the number.

CCCOc1ccc(-c2nc(-c3cccc4c3CCN4CC(N)(CO)CO)no2)cc1OCCC [Example 43]: 2.22

Reported EC50S1P1/EC50S1P for CCCOc1ccc(-c2nc(-c3ccc4c(c3)CCN4CC(N)(CO)CO)no2)cc1Br [Example 56] : what is it?
0.29

Try CCOc1ccc(-c2nc(-c3ccc4c(c3)CCN4CC(N)(CO)CO)no2)cc1OCC [Example 40] next.
36.41

Same thing, different molecule: CCCCOc1ccc(-c2nc(-c3ccc4c(c3)CCN4CC(N)(CO)CO)no2)cc1Cl [Example 52]
3.55

Another molecule: CCOc1ccc(-c2nc(-c3ccc4c(c3)CN(CC(N)(CO)CO)C4)no2)cc1OCC [Example 65]
0.16

Do the same for NC(CO)(CO)CN1CCc2c(-c3noc(C45CC6CC(CC(C6)C4)C5)n3)cccc21 [Example 57] please
268.44

Likewise for Cc1cc2cc(-c3nc(-c4cccc5c4CCN5CC(N)(CO)CO)no3)ccc2o1 [Example 42] ?
117.8

CC(C)Oc1ccc(-c2nc(-c3ccc4c(c3)CCN4CC(N)(CO)CO)no2)cc1Cl [Example 51] , same question.
0.38

Another: CC1(C)C2CCC(CCOc3ccc(CCC(N)(CO)CO)cc3)C1C2.Cl (stereo not drawn) [Example 23]
419

----------
# Tested on: Human promyelocytic leukemia (HL-60) cells
# assay: Cell viability (growth inhibition) assay, MTS
# Type: cell-based
# condition.notes: 50% reduction in cell viability of HL-60 cells, 48 hr incubation
Where a name gives a salt, the structure may show the parent alone.
measured.metric: IC50 (µM)
Provide only the numeric value, understood in µM.

Examples with their reported IC50 follow.
Cc1ccc(OCCCc2ccc(CCC(N)(CO)CO)cc2)c(C23CC4CC(CC(C4)C2)C3)c1 [Example 29, hydrochloride salt]: 3.94
NC(CO)(CO)CCc1ccc(O)c(C23CC4CC(CC(C4)C2)C3)c1 [Example 22, hydrochloride salt]: 10.5
CC(C)Oc1cc2c(cc1C13CC4CC(CC(C4)C1)C3)CN(CC(N)(CO)CO)CC2: 3.27

Next, consider the following compound.
Recorded IC50 of CC(C)Oc1ccc(CCC(N)(CO)CO)cc1C12CC3CC(CC(C3)C1)C2 [Example 28, hydrochloride salt] , please.
1.56

----------
# target.under.test: UniProt:P21453
# assay: S1P1 [35S]-GTPgamaS binding assay (agonist activity)
# Assay type: biochemical
# condition.notes: potency at S1P1 relative to S1P
Measured EC50S1P1/EC50S1P, listed per entry.
Give the value as a plain number.

A selection of reference data follows.
CCOc1ccc(-c2nc(-c3cccc4c3CCN4CC(N)(CO)CO)no2)cc1OCC: 0.4
CCCOc1ccc(-c2nc(-c3cccc4c3CCN4CC(N)(CO)CO)no2)cc1N: 10.61

Consider the compound shown here: CC(C)(C)OC(=O)NC(CO)(CO)CN1CCc2c(OCc3cc4c(Cl)cc(Cl)cc4o3)cccc21 What is its recorded EC50S1P1/EC50S1P?
3066.24

----------
# target.under.test: S1P1 human receptor (Homo sapiens (Human))
# assay: S1P1 [35S]-GTPgamaS binding assay (agonist activity)
# Type: biochemical
# condition.notes: potency at S1P1 relative to S1P
measured.metric: EC50S1P1/EC50S1P
Returns: the value as a bare number; no unit string appended.

Solved cases below.
NC(CO)(CO)CN1CCc2c(-c3noc(-c4ccc(-c5ccccc5C(F)(F)F)cc4)n3)cccc21 [Example 36]: 65
CCCCCCCCc1ccc2c(c1)CN(CC(N)(CO)CO)C2 [Example 2]: 593

Below: the item to evaluate.
Query (molecule): CCCOc1ccc(-c2nc(-c3cccc4c3CCN4CC(N)(CO)CO)no2)cc1I [Example 44] ; field requested: EC50S1P1/EC50S1P
18.24

----------
# target.under.test: S1P1 human receptor (Homo sapiens (Human))
# assay: S1P1 [35S]-GTPgamaS binding assay (agonist activity)
# Assay type: biochemical
# condition.notes: S1P1, relative to reference agonist S1P
# Procedure: Selected Compounds of the Examples were evaluated at Millipore Corporation, USA, using S1P1 receptor; [^35S]-GTPgamaS binding assay. […] Selectivity was determined upon initial addition of compounds followed by a 30 minute incubation at 30° C. Following compound incubation, bounded [^35S]-GTPgamaS was determined by filtration and scintillation counting. Independently, selected compounds were evaluated for S1P1 and S1P3 agonistic activity. […]
# Lookup of reported Efficacy (% of maximum) keyed by entry
Please state the figure in %; there is no need to write the unit.

NC(CO)(CO)CN1CCc2c(-c3noc(-c4ccc(-c5ccccc5C(F)(F)F)cc4)n3)cccc21 [Example 36]: 99
CCOc1ccc(-c2nc(-c3cccc4c3CCN4CC(N)(CO)CO)no2)cc1OCC [Example 34]: 92
CCOc1ccc(-c2nc(-c3ccc(C4=CCN(CC(N)(CO)CO)CC4)cc3)no2)cc1OCC [Example 58]: 60
CCCOc1ccc(-c2nc(-c3cccc4c3CCN4CC(N)(CO)CO)no2)cc1OCCC [Example 43]: 89
Cc1cc2cc(-c3nc(-c4cccc5c4CCN5CC(N)(CO)CO)no3)ccc2o1 [Example 42]: 92

Reported Efficacy (% of maximum) for NC(CO)(CO)CN1CCc2c(OCc3cc4c(Cl)cc(Cl)cc4o3)cccc21 [41(a)] : what is it?
42

Consider next the compound CCCOc1ccc(-c2nc(-c3cccc4c3CCN4CC(N)(CO)CO)no2)cc1I [Example 44] in the same way.
60

For CCCc1ccc(-c2nc(-c3cccc4c3CCN4CC(N)(CO)CO)no2)cc1 [Example 48] then?
78

Same for COc1ccc(-c2nc(-c3ccc4c(c3)CCN4CC(N)(CO)CO)no2)cc1Cl [Example 7]
109

Now consider CCCCCOc1ccc(-c2nc(-c3ccc4c(c3)CCN4CC(N)(CO)CO)no2)cc1Cl [Example 54] and answer again.
73
